The reported measurements were obtained from patent US20160251438A1.

molecular target: T1, recombinant soluble human GARP-TGFβ1 complex (human, UniProt Q14392 20-628; P01137 30-390); experiment: SPR (Biacore), hGARP-TGFβ1 immobilised
T1 construct: co-expressed in HEK293E, purified by the Strep-Tag; TGFβ consists of LAP and mature TGFβ; also called shGARP-TGFβ; rhGARP-TGFβ
T1 sequence (Q14392 other isoform, or with tags, fused parts or gaps limits assumed, chain 1 of 2): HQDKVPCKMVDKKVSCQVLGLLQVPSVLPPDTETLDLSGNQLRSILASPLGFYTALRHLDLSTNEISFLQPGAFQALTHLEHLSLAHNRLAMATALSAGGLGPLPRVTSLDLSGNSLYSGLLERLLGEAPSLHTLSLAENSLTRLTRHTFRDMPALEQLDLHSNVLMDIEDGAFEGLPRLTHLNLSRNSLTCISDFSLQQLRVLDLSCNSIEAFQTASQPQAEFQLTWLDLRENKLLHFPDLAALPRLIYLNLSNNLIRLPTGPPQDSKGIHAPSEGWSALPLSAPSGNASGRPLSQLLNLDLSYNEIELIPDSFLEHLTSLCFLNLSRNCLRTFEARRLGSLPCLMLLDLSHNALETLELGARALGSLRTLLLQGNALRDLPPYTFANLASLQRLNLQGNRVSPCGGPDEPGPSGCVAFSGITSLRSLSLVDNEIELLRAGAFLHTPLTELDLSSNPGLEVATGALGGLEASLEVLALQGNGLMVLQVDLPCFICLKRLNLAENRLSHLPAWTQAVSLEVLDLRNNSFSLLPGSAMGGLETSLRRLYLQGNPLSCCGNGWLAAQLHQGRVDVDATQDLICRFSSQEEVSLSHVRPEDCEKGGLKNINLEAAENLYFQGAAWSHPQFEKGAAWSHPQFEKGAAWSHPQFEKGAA
T1 sequence (P01137 30-390 limits assumed, chain 2 of 2): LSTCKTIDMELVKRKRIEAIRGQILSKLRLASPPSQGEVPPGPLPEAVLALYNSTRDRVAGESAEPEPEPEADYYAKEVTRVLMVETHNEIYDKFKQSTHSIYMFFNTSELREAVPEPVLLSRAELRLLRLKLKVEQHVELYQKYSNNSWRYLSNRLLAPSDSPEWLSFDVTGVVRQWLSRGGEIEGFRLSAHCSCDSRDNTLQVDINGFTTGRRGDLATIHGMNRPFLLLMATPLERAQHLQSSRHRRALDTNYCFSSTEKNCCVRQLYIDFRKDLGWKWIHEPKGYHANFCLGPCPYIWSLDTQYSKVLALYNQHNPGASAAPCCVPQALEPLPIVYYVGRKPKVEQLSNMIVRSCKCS
measure: koff (s⁻¹)

[
  {
    "binder": "LHG-10.6-D (antibody, human IgG1, V domains shown, also called LHG-10.6N297Q) VH: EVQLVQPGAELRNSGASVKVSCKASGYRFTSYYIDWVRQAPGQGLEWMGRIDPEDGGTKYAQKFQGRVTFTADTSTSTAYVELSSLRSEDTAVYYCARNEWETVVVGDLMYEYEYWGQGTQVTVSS VL: DIQMTQSPSSLSASLGDRVTITCQASQSISSYLAWYQQKPGQAPNILIYGASRLKTGVPSRFSGSGSGTSFTLTISGLEAEDAGTYYCQQYASVPVTFGQGTKVELK",
    "measure": "koff",
    "meas_value": "6.15e-06"
  }
]
